# ASSAY_EXPLANATION: AUC (0 to 6 hrs) in rat at 10 mg/kg, po
# Assay type: ADME, organism-based, Plasma
# Design: time < 6 hr, dose 10 mg/kg, route oral
# CONDITIONS_USED: plasma
MEASURE_NAME: AUC(0-t) at 6 h (ng·h/mL)
Give the number; ng·h/mL is assumed, so skip it.

[
  {
    "MOLECULAR_STRING": "CC1(COc2c(N3CCN(S(=O)(=O)Cc4cccnc4N)CC3)cnn(-c3cccc(Cl)c3)c2=O)CC1",
    "AUC(0-t) at 6 h [ng·h/mL]": 5200
  },
  {
    "MOLECULAR_STRING": "CC1(COc2c(N3CCN(S(=O)(=O)Cc4ccc(N)nc4)CC3)cnn(-c3cccc(Cl)c3)c2=O)CC1",
    "AUC(0-t) at 6 h [ng·h/mL]": 3100
  },
  {
    "MOLECULAR_STRING": "CC(C)c1cc(CS(=O)(=O)N2CCN(c3cnn(-c4cccc(Cl)c4)c(=O)c3OCC3(C)CC3)CC2)ccc1N",
    "AUC(0-t) at 6 h [ng·h/mL]": 2100
  }
]

Moving on to another molecule below.
[in] # input molecule: "CC1(COc2c(N3CCN(S(=O)(=O)Cc4ccc(N)c(Cl)c4)CC3)cnn(-c3cc(F)cc(F)c3)c2=O)CC1" ; wanted: its AUC(0-t) at 6 h
[out] 1100

* * *

Cmax listing for selected compounds.
# ASSAY_EXPLANATION: Cmax in rat at 10 mg/kg, po
# Type: ADME, organism-based
# Set-up: dose 10 mg/kg, route oral
# CONDITIONS_USED: in vivo
Kindly answer with a numeric value in ng/mL, unit omitted.

Some entries whose results are on file:
[
  {
    "MOLECULAR_STRING": "CC1(COc2c(N3CCN(S(=O)(=O)Cc4ccc(N)c(Cl)c4)CC3)cnn(-c3cc(F)cc(F)c3)c2=O)CC1",
    "Cmax [ng/mL]": 330
  },
  {
    "MOLECULAR_STRING": "Cc1cc(CS(=O)(=O)N2CCN(c3cnn(-c4cc(F)cc(F)c4)c(=O)c3OCC3(C)CC3)CC2)ccc1N",
    "Cmax [ng/mL]": 3500
  },
  {
    "MOLECULAR_STRING": "CC1(COc2c(N3CCN(S(=O)(=O)Cc4ccc(N)nc4)CC3)cnn(-c3cccc(Cl)c3)c2=O)CC1",
    "Cmax [ng/mL]": 1000
  }
]

// switching to the query compound
[in] Which measured Cmax value corresponds to "CC1(COc2c(N3CCN(S(=O)(=O)Cc4ccc(N)c(F)c4)CC3)cnn(-c3cc(F)cc(F)c3)c2=O)CC1" ?
[out] 310

* * *

Items are presented alongside their recorded AUC(0-t) at 6 h.
# ASSAY_EXPLANATION: AUC (0 to 6 hrs) in rat at 10 mg/kg, po
# Assay type: ADME, organism-based, Plasma
# Set-up: time < 6 hr, dose 10 mg/kg, route oral
# CONDITIONS_USED: plasma
All answers are understood in ng·h/mL, so give the number only.

Example results:
[
  {
    "MOLECULAR_STRING": "CC1(COc2c(N3CCN(S(=O)(=O)Cc4cccc(N)c4)CC3)cnn(-c3cccc(Cl)c3)c2=O)CC1",
    "UNIT_OF_MEASURE": "ng·h/mL",
    "VALUE": 5700
  },
  {
    "MOLECULAR_STRING": "Nc1cccc(CS(=O)(=O)N2CCN(c3cnn(-c4cc(F)cc(F)c4)c(=O)c3OC3CCCC3)CC2)c1",
    "UNIT_OF_MEASURE": "ng·h/mL",
    "VALUE": 5700
  }
]

Consider the record given below.
[in] // returns reported AUC(0-t) at 6 h for input "Nc1ccc(CS(=O)(=O)N2CCN(c3cnn(-c4cc(F)cc(F)c4)c(=O)c3OC3CCCC3)CC2)cc1"
[out] 8100

* * *

# ASSAYED_SYSTEM: Beta-1,3-glucan synthase (Candida albicans)
# ASSAY_EXPLANATION: Inhibition of 1,3-beta-D-glucan synthase in Candida albicans BWP17 membranes
Listed next: entries and their corresponding IC50.

Look over these answered cases.
[
  {
    "COMPOUND": "O=c1c(OC2CCCC2)c(N2CCN(S(=O)(=O)Cc3ccccc3F)CC2)cnn1-c1cccc(Cl)c1",
    "IC50": "73.1 nM"
  },
  {
    "COMPOUND": "O=c1c(OC2CCCC2)c(N2CCN(S(=O)(=O)Cc3cccc(Cl)c3)CC2)cnn1-c1cccc(Cl)c1",
    "IC50": "160 nM"
  },
  {
    "COMPOUND": "O=c1c(OC2CCCc3ncccc32)c(N2CCN(S(=O)(=O)Cc3ccccc3)CC2)cnn1-c1cccc(Cl)c1 (configuration not stated)",
    "IC50": "6760 nM"
  },
  {
    "COMPOUND": "Nc1cccc(CS(=O)(=O)N2CCN(c3cnn(-c4cc(F)cc(F)c4)c(=O)c3OC3CCCC3)CC2)c1",
    "IC50": "128 nM"
  },
  {
    "COMPOUND": "CC(C)c1cc(CS(=O)(=O)N2CCN(c3cnn(-c4cccc(Cl)c4)c(=O)c3OCC3(C)CC3)CC2)ccc1N",
    "IC50": "631 nM"
  },
  {
    "COMPOUND": "CC1(COc2c(N3CCN(S(=O)(=O)Cc4cccnc4N)CC3)cnn(-c3cccc(Cl)c3)c2=O)CC1",
    "IC50": "239 nM"
  },
  {
    "COMPOUND": "O=c1c(OC2CCCCC2)c(N2CCN(S(=O)(=O)Cc3ccccc3)CC2)cnn1-c1cccc(Cl)c1",
    "IC50": "1470 nM"
  },
  {
    "COMPOUND": "CC1(COc2c(N3CCN(S(=O)(=O)Cc4ccc(N)nc4)CC3)cnn(-c3cccc(Cl)c3)c2=O)CC1",
    "IC50": "91.7 nM"
  }
]

[in] Endpoint output: IC50 of "O=c1c(OC2CCCC2)c(N2CCN(S(=O)(=O)Cc3ccc(F)cc3)CC2)cnn1-c1cccc(Cl)c1" . Value?
[out] 110 nM

[in] Can you look up the measured IC50 of "Nc1ccc(CS(=O)(=O)N2CCN(c3cnn(-c4cc(F)cc(F)c4)c(=O)c3OC3CCCC3)CC2)cc1" for me?
[out] 110 nM

[in] Fill in the blank: the reported IC50 of "Cc1cc(CS(=O)(=O)N2CCN(c3cnn(-c4cc(F)cc(F)c4)c(=O)c3OCC3(C)CC3)CC2)ccc1N" is ____.
[out] 125 nM

[in] Param item = "Nc1ccc(CS(=O)(=O)N2CCN(c3cnn(-c4cccc(Cl)c4)c(=O)c3OC3CCCC3)CC2)cc1" ; retrieve measured IC50.
[out] 91.9 nM

* * *

# System: Aspergillus fumigatus
# ASSAY_EXPLANATION: Antifungal activity against Aspergillus fumigatus ND158 by broth dilution method
# Assay type: functional
# CONDITIONS_USED: read-out: MEC
Reported minimal effective concentration by item:
Only the number, expressed in µg/mL, is required.

Check out these entries, answers already filled in.
[
  {
    "MOLECULAR_STRING": "Cc1cc(CS(=O)(=O)N2CCN(c3cnn(-c4cc(F)cc(F)c4)c(=O)c3OCC3(C)CC3)CC2)ccc1N",
    "minimal effective concentration (µg/mL)": 4.2
  },
  {
    "MOLECULAR_STRING": "Cc1cc(CS(=O)(=O)N2CCN(c3cnn(-c4cccc(Cl)c4)c(=O)c3OCC3(C)CC3)CC2)ccc1N",
    "minimal effective concentration (µg/mL)": 2.08
  }
]

[in] Look up minimal effective concentration with Aspergillus fumigatus for this compound: "CC1(COc2c(N3CCN(S(=O)(=O)Cc4ccc(N)nc4)CC3)cnn(-c3cccc(Cl)c3)c2=O)CC1"
[out] 8.4

[in] Report minimal effective concentration for "CC1(COc2c(N3CCN(S(=O)(=O)Cc4cccc(N)c4)CC3)cnn(-c3cccc(Cl)c3)c2=O)CC1" tested on Aspergillus fumigatus.
[out] 1.04

[in] Can you look up minimal effective concentration on Aspergillus fumigatus for "CCc1cc(CS(=O)(=O)N2CCN(c3cnn(-c4cccc(Cl)c4)c(=O)c3OCC3(C)CC3)CC2)ccc1N" ?
[out] 4.2

* * *

# ASSAYED_SYSTEM: Beta-1,3-glucan synthase (Candida albicans, UniProt O13383)
# Sequence (O13383 whole entry): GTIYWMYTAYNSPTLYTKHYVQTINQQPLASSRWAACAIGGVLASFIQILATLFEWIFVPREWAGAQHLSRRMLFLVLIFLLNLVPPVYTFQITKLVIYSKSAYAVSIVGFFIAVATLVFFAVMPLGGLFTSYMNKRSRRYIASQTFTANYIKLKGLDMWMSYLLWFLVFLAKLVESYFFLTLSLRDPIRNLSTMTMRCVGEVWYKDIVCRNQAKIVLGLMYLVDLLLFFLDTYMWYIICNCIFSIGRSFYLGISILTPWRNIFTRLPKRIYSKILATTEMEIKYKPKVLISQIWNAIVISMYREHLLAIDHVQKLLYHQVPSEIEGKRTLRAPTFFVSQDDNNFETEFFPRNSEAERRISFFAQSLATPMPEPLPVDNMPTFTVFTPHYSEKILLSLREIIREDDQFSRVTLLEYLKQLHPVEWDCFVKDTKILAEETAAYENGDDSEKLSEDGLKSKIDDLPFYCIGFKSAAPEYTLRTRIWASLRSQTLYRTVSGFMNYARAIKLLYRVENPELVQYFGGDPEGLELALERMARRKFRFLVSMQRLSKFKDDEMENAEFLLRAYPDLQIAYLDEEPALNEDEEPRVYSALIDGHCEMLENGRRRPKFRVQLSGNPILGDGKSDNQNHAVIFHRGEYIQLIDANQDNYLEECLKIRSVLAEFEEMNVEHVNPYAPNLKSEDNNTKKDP
# ASSAY_EXPLANATION: Inhibition of 1,3-beta-D-glucan synthase in Candida albicans BWP17 membranes
# Assay type: cell membranes
MEASURE_NAME: IC50 (nM)
Number only, in nM; omit the unit.

[
  {
    "COMPOUND": "O=c1c(OC2CCCC2)c(N2CCN(S(=O)(=O)Cc3ccncc3)CC2)cnn1-c1cc(F)cc(F)c1",
    "ASSAYED_SYSTEM": "Beta-1,3-glucan synthase (Candida albicans, UniProt O13383)",
    "UNIT_OF_MEASURE": "nM",
    "VALUE": 564
  },
  {
    "COMPOUND": "O=C(O)c1ccc(CS(=O)(=O)N2CCN(c3cnn(-c4cccc(Cl)c4)c(=O)c3OC3CCCC3)CC2)cc1",
    "ASSAYED_SYSTEM": "Beta-1,3-glucan synthase (Candida albicans, UniProt O13383)",
    "UNIT_OF_MEASURE": "nM",
    "VALUE": 4190
  },
  {
    "COMPOUND": "O=c1c(OCCc2ccccn2)c(N2CCN(S(=O)(=O)Cc3ccccc3)CC2)cnn1-c1cccc(Cl)c1",
    "ASSAYED_SYSTEM": "Beta-1,3-glucan synthase (Candida albicans, UniProt O13383)",
    "UNIT_OF_MEASURE": "nM",
    "VALUE": 1060
  },
  {
    "COMPOUND": "CC1(COc2c(N3CCN(S(=O)(=O)Cc4cccc(N)c4)CC3)cnn(-c3cccc(Cl)c3)c2=O)CC1",
    "ASSAYED_SYSTEM": "Beta-1,3-glucan synthase (Candida albicans, UniProt O13383)",
    "UNIT_OF_MEASURE": "nM",
    "VALUE": 73.5
  },
  {
    "COMPOUND": "O=c1c(OC2CCc3cccnc32)c(N2CCN(S(=O)(=O)Cc3ccccc3)CC2)cnn1-c1cccc(Cl)c1 (stereo not given)",
    "ASSAYED_SYSTEM": "Beta-1,3-glucan synthase (Candida albicans, UniProt O13383)",
    "UNIT_OF_MEASURE": "nM",
    "VALUE": 1380
  }
]

[in] Entry "O=c1c(OC2CCCC2)c(N2CCN(S(=O)(=O)Cc3cccc(F)c3)CC2)cnn1-c1cc(F)cc(F)c1" : reported IC50 = ?
[out] 72.9

[in] So what does the record say about IC50 for "CC(C)(O)CCOc1c(N2CCN(S(=O)(=O)Cc3ccccc3)CC2)cnn(-c2cc(F)cc(F)c2)c1=O" ?
[out] 565

[in] Requested read-out: IC50. Entry: "O=c1c(OCC2(CF)CC2)c(N2CCN(S(=O)(=O)Cc3ccccc3)CC2)cnn1-c1cccc(Cl)c1"
[out] 54.8

[in] Quick check: IC50 of "Cc1cc(CS(=O)(=O)N2CCN(c3cnn(-c4cccc(Cl)c4)c(=O)c3OCC3(C)CC3)CC2)ccc1N" ?
[out] 143

The measured values listed here are drawn from ChEMBL document CHEMBL2057100.
